- System: RS4;11 (BCL-2 dependent acute lymphoblastic leukemia cell line)
- measurementProtocol: RS4;11 cell proliferation assay
- Assay type: cell-based
- appliedConditions: Homo sapiens, RS4-11, 48 hrs treatment, CellTiter-GLO, read-out: Cellular proliferation assay (IC50, nM) RS4
Exercise: state measured IC50 for each of the compounds provided.
# number only, unit nM dropped from output

IC50 for CC(C)c1ccccc1[C@@H]1CCCN1C1CC2(CCN(c3ccc(C(=O)NS(=O)(=O)c4ccc(NCC5(F)CCOCC5)c([N+](=O)[O-])c4)c(N4CCOc5nc6[nH]ccc6cc54)c3)CC2)C1 [Example B4] ?
0.58

Another: CC(C)c1ccccc1[C@@H]1CCCN1C1CC2(CCN(c3ccc(C(=O)NS(=O)(=O)c4ccc(NC[C@H]5CC[C@](C)(O)CC5)c([N+](=O)[O-])c4)c(N4c5cc6cc[nH]c6nc5OCC4C)c3)CC2)C1 (stereo partly shown) [Example B10]
1

Another: CC(C)c1ccccc1[C@@H]1CCCN1C1CC2(C1)CN(c1ccc(C(=O)NS(=O)(=O)c3ccc(NC[C@H]4CC[C@](C)(O)CC4)c([N+](=O)[O-])c3)c(N3CCCOc4nc5[nH]ccc5cc43)c1)C2 [Example B13]
5.5

Another: CC(C)c1ccccc1[C@@H]1CCCN1C1CC2(CCN(c3ccc(C(=O)NS(=O)(=O)c4cc5c(c([N+](=O)[O-])c4)N[C@H](C[C@H]4CC[C@H](O)CC4)CO5)c(N4CCCOc5nc6[nH]ccc6cc54)c3)CC2)C1 [Example B9]
0.5
